Where do these numbers come from? They come from ChEMBL document CHEMBL3867486.

# Lookup of reported AUC keyed by entry
Assay: AUC in rat at 5 mg/kg, po
Format: ADME, organism-based
Conditions: in vivo
endpoint.name: AUC (µM·h)

chemical_string=C=C[C@@H]1C[C@]1(NC(=O)[C@@H]1C[C@]23CCc4c(c(nc5ccc(OC)cc45)CCCCC[C@@H]4CCC[C@H]4OC(=O)N[C@@H](C(C)(C)C)C(=O)N1C2)O3)C(=O)NS(=O)(=O)C1CC1.[K+] endpoint_name=AUC result_value=3.2
chemical_string=COc1ccc2nc(C(F)(F)F)c3c(c2c1)CC[C@]1(C[C@H]2C(=O)N[C@]4(C(=O)NS(=O)(=O)C5(C)CC5)C[C@H]4/C=C\CCCCC[C@H](NC(=O)OCC(C)C)C(=O)N2C1)O3.[K+] endpoint_name=AUC result_value=9.2

----------
Assay: AUC in rat at 10 mg/kg, po
Assay type: ADME, organism-based
Conditions: in vivo
endpoint.name: AUC (µM·h)

chemical_string=COc1ccc2nc3c4c(c2c1)CC[C@]1(C[C@H]2C(=O)N[C@]5(C(=O)NS(=O)(=O)C6(C)CC6)C[C@H]5/C=C\CCCCC[C@H](NC(=O)O[C@@H]5CCC[C@H]5CCCCC3)C(=O)N2C1)O4.[K+] display_unit=µM·h result_value=0.8

----------
Assay: Drug uptake in rat liver at 10 mg/kg, po measured after 24 hrs
Type: ADME, organism-based
Details: read-out: Drug uptake
endpoint.name: concentration at 24 h (nM)

chemical_string=COc1ccc2nc3c4c(c2c1)CC[C@]1(C[C@H]2C(=O)N[C@]5(C(=O)NS(=O)(=O)C6(C)CC6)C[C@H]5/C=C\CCCCC[C@H](NC(=O)O[C@@H]5CCC[C@H]5CCCCC3)C(=O)N2C1)O4.[K+] result_value=3

----------
System: Hepatitis C virus
Experiment: Antiviral activity against HCV genotype 3a infected in human HuH7 cells assessed as reduction viral RNA level after 72 hrs by RT-PCR method
Format: functional, cell-based, Hepacivirus hominis
Details: Huh-7, 72 h
endpoint.name: EC50

chemical_string=CC[C@@H]1C[C@]1(NC(=O)[C@@H]1C[C@]23CCc4c(c(nc5ccc(OC)cc45)CCCCC[C@@H]4C[C@H]4OC(=O)N[C@@H](C(C)(C)C)C(=O)N1C2)O3)C(=O)NS(=O)(=O)C1CC1 endpoint_name=EC50 result_value="17.3 nM"
chemical_string=C=C[C@@H]1C[C@]1(NC(=O)[C@@H]1C[C@]23CCc4c(c(nc5ccc(OC)cc45)CCCCC[C@@H]4C[C@H]4OC(=O)N[C@@H](C(C)(C)C)C(=O)N1C2)O3)C(=O)NS(=O)(=O)C1CC1 endpoint_name=EC50 result_value="8 nM"
chemical_string=C=C[C@@H]1C[C@]1(NC(=O)[C@@H]1C[C@]23CCc4c(c(nc5ccc(OC)cc45)CCCCC[C@@H]4CCC[C@H]4OC(=O)N[C@@H](C(C)(C)C)C(=O)N1C2)O3)C(=O)NS(=O)(=O)C1(C)CC1 endpoint_name=EC50 result_value="5.7 nM"
chemical_string=COc1ccc2nc(C(F)(F)F)c3c(c2c1)CC[C@]1(C[C@H]2C(=O)N[C@]4(C(=O)NS(=O)(=O)C5(C)CC5)C[C@H]4/C=C\CCCCC[C@H](NC(=O)OCC(C)C)C(=O)N2C1)O3 endpoint_name=EC50 result_value="2 nM"
chemical_string=COc1ccc2nc3c4c(c2c1)CC[C@]1(C[C@H]2C(=O)N[C@]5(C(=O)NS(=O)(=O)C6(C)CC6)C[C@H]5/C=C\CCCCC[C@H](NC(=O)O[C@@H]5CCC[C@H]5CCCCC3)C(=O)N2C1)O4 endpoint_name=EC50 result_value="2.3 nM"
chemical_string=C=C[C@@H]1C[C@]1(NC(=O)[C@@H]1C[C@]23CCc4c(c(nc5ccc(OC)cc45)CCCCC[C@@H]4C[C@H]4OC(=O)N[C@@H](C(C)(C)C)C(=O)N1C2)O3)C(=O)NS(=O)(=O)C1(C)CC1 endpoint_name=EC50 result_value="3.3 nM"
